Biological target: HuR RRM3 (human, UniProt Q15717 241-326)
Sequence (Q15717 241-326): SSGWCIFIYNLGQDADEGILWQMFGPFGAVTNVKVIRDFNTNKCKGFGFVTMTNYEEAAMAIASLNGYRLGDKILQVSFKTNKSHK
Experiment: ITC
measurement kind: Kd (µM)

1. AUUUUU (ssRNA) | 4.03
